- Tested on: OVCAR-4 ovarian
- experimental-details: NCI-60 one-dose screen, 48 h
- conditions-used: 10 µM unless noted
- Method: Growth inhibition of the OVCAR-4 human tumor cell line is measured as a screen for anti-cancer activity. Cells are grown in 96 well plates and exposed to the test compound for 48 hours. Compounds are tested at a single concentration, which is 10^-5 M for most compounds. The reported endpoint is percent growth (GI% or GIPRCNT), where numbers from 0 - 100% represent growth inhibition, and numbers from -100% - 0 represent cell death. For example, a value of 40 represents 60% growth inhibition. […]
This is part of a sample that, as a whole, favours compounds with a hit. Of some 83,000 tested, about 20% had one in any assay. Calls of active or inactive are those of the source. Rule for the calls: active = growth percent below 10; inactive = the rest.
Respond only with the outcome that fits, drawn from active, inactive

Consider the worked cases shown below.
O=c1cc(/C(=C2/C=CC=N2)c2ccc[nH]2)c2cc(Cl)ccc2o1 | inactive
COc1ccc(O)c(N=Nc2nccs2)c1 | inactive
CCc1nnc(CNc2ccc(Cl)cc2)o1 | inactive
C[n+]1ccccc1/C=C/c1ccc2cccc(O)c2n1 | inactive
CC1=C[C@H]2c3c(c(O)c(O)c4oc5ccccc5c(=O)c34)[C@H](c3cc(O)c(O)c4oc5ccccc5c(=O)c34)[C@H]2C(C)(C)C1 | active

Outcome logged for COc1cc(/C=C/c2cc(/C=C/c3ccc(O)c(OC)c3)n(-c3c(C)cccc3C)c(=O)n2)ccc1O in this assay:
active

Request: CCN(CC)c1ccc(-c2cc(-c3cc(OC)c(OC)c(OC)c3)nc(N3CCOCC3)c2C#N)cc1
inactive

Request: COc1ccc(/C=N/C2=C(C#N)C(c3ccc(N(C)C)cc3)c3ccc4ccccc4c3O2)cc1 (centres undefined)
inactive

Request: CN(CCCCCl)P(=O)(OCc1ccc([N+](=O)[O-])o1)C(F)(F)c1ccc(CC(=O)NC[C@@H](O)/C=C\[C@@H](O)[C@H](CO)Cc2ccccc2)cc1 (some centres undefined)
inactive
